system: ALS enzyme extracted from Mutant 8 (heterozygous); assay: ALS enzyme assay, heterozygous Mutant 8; type: biochemical, Zea mays; details: Mutant 8; groups Strong, Intermediate, Weak, Zero
experimental-endpoint: resistance group, Enzyme Assay

{"molecule": "COc1cc(Cl)nc(NC(=O)NS(=O)(=O)c2ccccc2C(=O)O)n1", "resistance group, Enzyme Assay": "Zero"}
{"molecule": "CCc1cnc(C2=NC(=O)C(C)(C(C)C)N2)c(C(=O)O)c1 (stereo not drawn)", "resistance group, Enzyme Assay": "Strong"}
{"molecule": "CC(C)C1(C)N=C(c2ncccc2C(=O)O)NC1=O (stereo not drawn)", "resistance group, Enzyme Assay": "Strong"}
{"molecule": "COC(=O)c1sccc1S(=O)(=O)NC(=O)Nc1nc(C)nc(OC)n1", "resistance group, Enzyme Assay": "Weak"}
{"molecule": "COc1nc(C)nc(NC(=O)NS(=O)(=O)c2ccccc2Cl)n1", "resistance group, Enzyme Assay": "Weak"}

**Q:** Give resistance group, Enzyme Assay for the following molecule: CC(C)C1(C)N=C(c2nc3ccccc3cc2C(=O)O)NC1=O (stereo not drawn)
**A:** Strong

###

target: ALS enzyme extracted from Mutant 5 (heterozygous); experiment: ALS enzyme assay, heterozygous Mutant 5; details: ALS of heterozygous Mutant 5; read-out: ID50% (the source's name)
Listed below: IC50 values for each entry.
Give your result in µM as a bare value.

Worked cases, IC50 given:
{"compound": "COc1nc(C)nc(NC(=O)NS(=O)(=O)c2ccccc2Cl)n1", "experimental-endpoint": "IC50", "value": 0.04}
{"compound": "CC(C)C1(C)N=C(c2ncccc2C(=O)O)NC1=O (stereo not drawn)", "experimental-endpoint": "IC50", "value": 300}
{"compound": "COc1cc(Cl)nc(NC(=O)NS(=O)(=O)c2ccccc2C(=O)O)n1", "experimental-endpoint": "IC50", "value": 0.017}
{"compound": "CC(C)C1(C)N=C(c2nc3ccccc3cc2C(=O)O)NC1=O (stereo not drawn)", "experimental-endpoint": "IC50", "value": 25}
{"compound": "COC(=O)c1sccc1S(=O)(=O)NC(=O)Nc1nc(C)nc(OC)n1", "experimental-endpoint": "IC50", "value": 0.34}

**Q:** Give IC50 for the following compound: CCc1cnc(C2=NC(=O)C(C)(C(C)C)N2)c(C(=O)O)c1 (stereo not drawn)
**A:** 125

###

Listed below: pIC50 values for each entry.
molecular target: ALS extracted from leaves of MUTANT 2 (homozygous); assay: ALS enzyme assay, homozygous Mutant 2; conditions: ALS of homozygous Mutant 2; read-out: ID50% Mutant
# pIC50 = -log10(concentration in molar units)

Worked cases, pIC50 given:
{"molecule": "CCc1cnc(C2=NC(=O)C(C)(C(C)C)N2)c(C(=O)O)c1 (stereo not drawn)", "value": 3.40}
{"molecule": "COc1nc(C)nc(NC(=O)NS(=O)(=O)c2ccccc2Cl)n1", "value": 7.40}
{"molecule": "CC(C)C1(C)N=C(c2nc3ccccc3cc2C(=O)O)NC1=O (stereo not drawn)", "value": 4.40}
{"molecule": "COC(=O)c1sccc1S(=O)(=O)NC(=O)Nc1nc(C)nc(OC)n1", "value": 6.44}
{"molecule": "COc1cc(Cl)nc(NC(=O)NS(=O)(=O)c2ccccc2C(=O)O)n1", "value": 7.70}

**Q:** Give pIC50 for the following molecule: CC(C)C1(C)N=C(c2ncccc2C(=O)O)NC1=O (stereo not drawn)
**A:** 3.17

###

tested on: Mutant 1 plants; assay: Cross-resistance testing (glasshouse dose response), Mutant 1; format: in vivo, Zea mays; details: pre-emergence spray, assessed after four weeks growth
experimental-endpoint: resistance group, Dose Response

{"molecule": "CCc1cnc(C2=NC(=O)C(C)(C(C)C)N2)c(C(=O)O)c1 (stereo not shown) [Imazethapyr]", "target-system": "Mutant 1 plants", "value": "Strong"}
{"molecule": "COc1cc(Cl)nc(NC(=O)NS(=O)(=O)c2ccccc2C(=O)O)n1 [Chlorimuron, chlorimuron]", "target-system": "Mutant 1 plants", "value": "Zero"}
{"molecule": "COc1nc(C)nc(NC(=O)NS(=O)(=O)c2ccccc2Cl)n1 [Chlorsulfuron, chlorsulfuron]", "target-system": "Mutant 1 plants", "value": "Zero"}
{"molecule": "CC(C)C1(C)N=C(c2nc3ccccc3cc2C(=O)O)NC1=O (stereo not shown) [Imazaquin, imazaquin]", "target-system": "Mutant 1 plants", "value": "Strong"}

###

Tested on: ALS enzyme extracted from Mutant 9 (heterozygous)
Assay: ALS enzyme assay, heterozygous Mutant 9
Format: biochemical, Zea mays
Settings: fold increase in resistance vs wild type, heterozygous Mutant 9; 30 min
Experimental: Seeds of generation M₁BC₁ M₁BC₂ of the nine mutants were sprayed pre-emergence with the herbicide imazethapyr (PURSUIT) (Trade Mark) at a rate of 250 g/ha and grown in a growth chamber (16 hour day, 27°C; 8 hour night, 17°C). Plants were harvested after 11 days. […] One hundred microlitres of the enzyme extract was used for each assay. […] After centrifugation at 30,000g the optical density of the supernatant was read at 540nm. […]
experimental-endpoint: Fold Increase
Reply: number alone, nothing else.

Worked cases, Fold Increase given:
{"compound": "COC(=O)c1sccc1S(=O)(=O)NC(=O)Nc1nc(C)nc(OC)n1", "target-system": "ALS enzyme extracted from Mutant 9 (heterozygous)", "Fold Increase": 1}
{"compound": "CC(C)C1(C)N=C(c2nc3ccccc3cc2C(=O)O)NC1=O (stereo not drawn)", "target-system": "ALS enzyme extracted from Mutant 9 (heterozygous)", "Fold Increase": 83}
{"compound": "COc1nc(C)nc(NC(=O)NS(=O)(=O)c2ccccc2Cl)n1", "target-system": "ALS enzyme extracted from Mutant 9 (heterozygous)", "Fold Increase": 3}
{"compound": "CCc1cnc(C2=NC(=O)C(C)(C(C)C)N2)c(C(=O)O)c1 (stereo not drawn)", "target-system": "ALS enzyme extracted from Mutant 9 (heterozygous)", "Fold Increase": 283}

Now look at this one.
**Q:** Give Fold Increase for the following compound: COc1cc(Cl)nc(NC(=O)NS(=O)(=O)c2ccccc2C(=O)O)n1
**A:** 3

###

system: ALS extracted from leaves of MUTANT 2 (homozygous); assay: ALS enzyme assay, homozygous Mutant 2; assay type: biochemical, Zea mays; conditions: fold increase in resistance vs wild type, homozygous Mutant 2; 30 min
Binary call on Fold Increase with cut-off 70: strictly below means 1, and equality or higher means 0.

See these solved cases before continuing.
{"compound": "CCc1cnc(C2=NC(=O)C(C)(C(C)C)N2)c(C(=O)O)c1 (stereo not drawn) [Imazethapyr]", "qualitative-label": 0}
{"compound": "CC(C)C1(C)N=C(c2nc3ccccc3cc2C(=O)O)NC1=O (stereo not drawn) [Imazaquin, imazaquin]", "qualitative-label": 1}
{"compound": "COc1cc(Cl)nc(NC(=O)NS(=O)(=O)c2ccccc2C(=O)O)n1 [Chlorimuron, chlorimuron]", "qualitative-label": 1}
{"compound": "COC(=O)c1sccc1S(=O)(=O)NC(=O)Nc1nc(C)nc(OC)n1 [Thiacarburon, thiacarburon]", "qualitative-label": 1}
{"compound": "CC(C)C1(C)N=C(c2ncccc2C(=O)O)NC1=O (stereo not drawn) [Imazapyr, imazapyr]", "qualitative-label": 0}

Then there is this compound:
**Q:** Take the compound COc1nc(C)nc(NC(=O)NS(=O)(=O)c2ccccc2Cl)n1 [Chlorsulfuron, chlorsulfuron] and say whether its Fold Increase is less than 70.
**A:** 1

###

Tested on: ALS enzyme extracted from Mutant 5 (heterozygous)
Assay: ALS enzyme assay, heterozygous Mutant 5
Assay type: biochemical, Zea mays
Conditions: fold increase in resistance vs wild type, heterozygous Mutant 5; 30 min
Experimental: Seeds of generation M₁BC₁ M₁BC₂ of the nine mutants were sprayed pre-emergence with the herbicide imazethapyr (PURSUIT) (Trade Mark) at a rate of 250 g/ha and grown in a growth chamber (16 hour day, 27°C; 8 hour night, 17°C). Plants were harvested after 11 days. […] One hundred microlitres of the enzyme extract was used for each assay. […] After centrifugation at 30,000g the optical density of the supernatant was read at 540nm. […]
Listed below: Fold Increase values for each entry.
Reply: number alone, nothing else.

Worked cases, Fold Increase given:
{"compound": "COc1cc(Cl)nc(NC(=O)NS(=O)(=O)c2ccccc2C(=O)O)n1", "value": 5}
{"compound": "CC(C)C1(C)N=C(c2nc3ccccc3cc2C(=O)O)NC1=O (stereo not drawn)", "value": 42}
{"compound": "CC(C)C1(C)N=C(c2ncccc2C(=O)O)NC1=O (stereo not drawn)", "value": 100}
{"compound": "COC(=O)c1sccc1S(=O)(=O)NC(=O)Nc1nc(C)nc(OC)n1", "value": 8}
{"compound": "COc1nc(C)nc(NC(=O)NS(=O)(=O)c2ccccc2Cl)n1", "value": 2}

**Q:** Specify the recorded Fold Increase for CCc1cnc(C2=NC(=O)C(C)(C(C)C)N2)c(C(=O)O)c1 (stereo not drawn) , system: ALS enzyme extracted from Mutant 5 (heterozygous).
**A:** 83

This collection of values is drawn from patent EP0472573B1.
